Hi there, I'd appreciate the recorded Plant response rating (0 to 100), Kochia for every entry that follows.
- Test system: kochia
- test: Test C postemergence
- Type: in vivo, Kochia scoparia
- reported-conditions: 125 g ai/ha, postemergence
In your answer, state the number alone without any accompanying words.

Give the reported Plant response rating (0 to 100), Kochia for this compound. FC(F)Oc1cnn(-c2ccccc2Oc2ncc(Cl)cn2)c1 [Compound 98]
98

Tell me its Plant response rating (0 to 100), Kochia given N#Cc1cccc(Oc2ncc(Cl)cn2)c1-n1cc(OC(F)F)cn1 [Compound 97] as the entry.
100

Output Plant response rating (0 to 100), Kochia of CC(C)c1cnn(-c2c(C#N)cccc2Oc2ncc(Cl)cn2)c1 [Compound 85]
90

Determine from records and report Plant response rating (0 to 100), Kochia for Fc1cnc(Oc2cccc(C(F)F)c2-n2cc(Cl)cn2)nc1 [Compound 94]
90

* * *

- Test system: wheat, winter
- test: Test C preemergence
- Assay type: in vivo, Triticum aestivum
- reported-conditions: Preemergence, 31 g ai/ha; scale 0 to 100, 0 no effect, 100 complete control
Hi there, I'd appreciate the recorded Plant response rating, Wheat for every entry that follows.

Please look at Fc1cnc(Oc2cccc(C(F)F)c2-n2cc(Cl)cn2)nc1 [Compound 94] and tell me its recorded Plant response rating, Wheat on wheat, winter.
0

State the measured Plant response rating, Wheat (wheat, winter) of Cc1cnc(Oc2cccc(C#N)c2-n2cc(C#N)cn2)nc1 [Compound 90]
0

Provide Plant response rating, Wheat, tested on wheat, winter, for N#Cc1cccc(Oc2ncc(Cl)cn2)c1-n1cc(OC(F)F)cn1 [Compound 97] .
10

Report Plant response rating, Wheat on wheat, winter for this entry: CC(C)c1cnn(-c2c(C#N)cccc2Oc2ncc(Cl)cn2)c1 [Compound 85]
0

* * *

- System: galium
- test: Test A postemergence
- Type: in vivo, Galium aparine
- reported-conditions: 1000 g ai/ha, 0 to 100 scale, 0 no effect, 100 complete control
- Excerpt: […]
Kindly state Plant response rating, Galium for each of the entries shown.
No unit in the answer, only the number.

// fetch Plant response rating, Galium given entry Fc1cccc(Oc2ncc(Cl)cn2)c1-n1cc(C2CCCCC2)nn1
70

Item FCc1cn(-c2ccccc2Oc2ncc(Cl)cn2)nn1 : provide Plant response rating, Galium
100

Provide only the value of recorded Plant response rating, Galium for Fc1cccc(Oc2ncc(Cl)cn2)c1-n1cc(-c2cccc(C(F)(F)F)c2)nn1
20

Kindly indicate its recorded Plant response rating, Galium. Item: NS(=O)(=O)c1cnn(-c2ccccc2Oc2ncc(Cl)cn2)c1
30

* * *

- Tested on: morningglory
- test: Test C postemergence
- Type: in vivo, Ipomoea coccinea
- reported-conditions: 31 g ai/ha, postemergence; visual rating, scale 0 to 100 (0 no effect, 100 complete control), 13 to 15 days
measured-property: Morningglory plant response rating
Reply with the value as a number alone.

Give Morningglory plant response rating for the following molecule: Fc1cccc(Oc2ncc(Cl)cn2)c1-n1cc(Cl)cn1
10

Hello, please tell me recorded Morningglory plant response rating for this one: Fc1cnc(Oc2ccccc2-n2cc(C(F)F)cn2)nc1
10

Please report the measured Morningglory plant response rating for Fc1cnc(Oc2cccc(C(F)F)c2-n2cc(C(F)(F)F)cn2)nc1
35

Given Clc1cnc(Oc2ccccc2-n2cc(I)nn2)nc1 , respond with its Morningglory plant response rating.
45

Supply measured Morningglory plant response rating of N#Cc1cccc(Oc2ncc(Cl)cn2)c1-n1cc(OCC(F)(F)F)cn1 in your reply.
85

Give me measured Morningglory plant response rating, please, for this molecule: Clc1cnc(Oc2cccc(Cl)c2-n2cc(I)cn2)nc1
20

Please look at this molecule and report its Morningglory plant response rating: Cc1cnc(Oc2cccc(C#N)c2-n2cc(C(F)(F)F)cn2)nc1
65

* * *

- Tested on: velvetleaf
- test: Test C preemergence
- Format: in vivo, Abutilon theophrasti
- reported-conditions: Preemergence, 62 g ai/ha; scale 0 to 100, 0 no effect, 100 complete control
measured-property: Plant response rating, Velvetleaf
Lab note: jot the number down without any unit.

Output measured Plant response rating, Velvetleaf for this item: NC(=S)c1cccc(Oc2ncc(Cl)cn2)c1-n1cc(Cl)cn1
98

For the compound N#Cc1cnn(-c2c(C#N)cccc2Oc2ncc(Cl)cn2)c1 , give its reported Plant response rating, Velvetleaf.
100

Indicate the recorded Plant response rating, Velvetleaf value for this compound: N#Cc1cnn(-c2c(Oc3ncc(F)cn3)cccc2C(F)F)c1
80

Fill in Plant response rating, Velvetleaf for record N#Cc1cn(-c2c(C#N)cccc2Oc2ncc(Cl)cn2)nn1
85

* * *

Answer each item with its documented Plant response rating, Ducksalad.
- Tested on: Heteranthera limosa
- test: Test B flooded paddy test
- Assay type: in vivo
- reported-conditions: Flood, 250 g ai/ha; 0 to 100 scale where 0 is no effect and 100 is complete control
Write no unit; give the number alone.

Give Plant response rating, Ducksalad for the following compound: Clc1cnc(Oc2ccccc2-n2cc(Br)nn2)nc1
90

Recall and state the measured Plant response rating, Ducksalad for Clc1cnc(Oc2ccccc2-n2cnc(Br)c2)nc1 .
90

Fill in reported Plant response rating, Ducksalad for this entry: Brc1cnc(Oc2ccccc2-n2ccc(Br)n2)nc1
60

Write down Plant response rating, Ducksalad measured for item C=C(C)c1cnn(-c2ccccc2Oc2ncc(Cl)cn2)c1
0

* * *

- System: johnsongrass
- test: Test C postemergence
- Format: in vivo, Sorghum halepense
- reported-conditions: Postemergence, 62 g ai/ha; scale 0 to 100 (0 no effect, 100 complete control)
measured-property: Plant response rating, Johnsongrass
I only need the number, thanks.

Item N#Cc1cccc(Oc2ncc(Cl)cn2)c1-n1cc(Cl)cn1 : provide Plant response rating, Johnsongrass
5

Answer with the recorded Plant response rating, Johnsongrass for the molecule listed here: CC(C)c1cnn(-c2c(C#N)cccc2Oc2ncc(Cl)cn2)c1
5

For the molecule Clc1cnc(Oc2cccc(Cl)c2-n2cc(I)cn2)nc1 , report Plant response rating, Johnsongrass.
5

Report Plant response rating, Johnsongrass for Cc1cnc(Oc2cccc(C#N)c2-n2cc(C(F)(F)F)cn2)nc1
0

Give Plant response rating, Johnsongrass for Clc1cnc(Oc2cccc(Br)c2-n2cc(I)nn2)nc1
5

* * *

Give Plant response rating, Corn for every item shown.
- System: corn
- test: Test A postemergence
- Type: in vivo, Zea mays
- reported-conditions: 500 g ai/ha, 0 to 100 scale where 0 is no effect and 100 is complete control
Reply with the value as a number alone.

Check the records and state Plant response rating, Corn for FC(F)c1cccc(Oc2ncc(Cl)cn2)c1-n1cc(C(F)(F)F)cn1
90

Supply recorded Plant response rating, Corn for NN=Cc1cccc(Oc2ncc(Cl)cn2)c1-n1cc(Br)cn1 here.
10

Please report Plant response rating, Corn for the following compound: O=Cc1cccc(Oc2ncc(I)cn2)c1-n1cc(Br)cn1
20

Read the entry N#Cc1cn(-c2c(C#N)cccc2Oc2ncc(Cl)cn2)nn1 and write its reported Plant response rating, Corn.
50

Return the recorded Plant response rating, Corn value; entry: N#Cc1cnc(Oc2ccccc2-n2cccn2)nc1
0

* * *

Hi there, I'd appreciate the recorded Plant response rating, Kochia for every entry that follows.
- System: kochia
- test: Test A postemergence
- Type: in vivo, Kochia scoparia
- reported-conditions: 31 g ai/ha, 0 to 100 scale, 0 no effect, 100 complete control

State measured Plant response rating, Kochia of the compound Clc1cnc(Oc2ccccc2-n2ccnc2)nc1 [Compound 100] with kochia.
0

Tell me its Plant response rating, Kochia on kochia: CC(C)Oc1cnn(-c2c(C#N)cccc2Oc2ncc(Cl)cn2)c1 [Compound 149]
60

Return reported Plant response rating, Kochia for target or system kochia, item COc1cccc(Oc2ncc(Cl)cn2)c1-n1cc(Cl)cn1 [Compound 169] .
0

Provide Plant response rating, Kochia, tested on kochia, for Fc1cnc(Oc2cccc(Br)c2-n2cc(OCC(F)(F)F)cn2)nc1 [Compound 157] .
60

Fill: Plant response rating, Kochia (kochia) for this compound FCCc1cn(-c2c(F)cccc2Oc2ncc(Cl)cn2)nn1 [Compound 108]
70

GET Plant response rating, Kochia | system: kochia | item: N#Cc1cnn(-c2c(Br)cccc2Oc2ncc(Cl)cn2)c1 [Compound 140]
90

Please respond with reported Plant response rating, Kochia (system kochia) for FC(F)(F)c1cnn(-c2c(Oc3ncc(Cl)cn3)cccc2-c2ncon2)c1 [Compound 279] .
40

Lab note: record Plant response rating, Kochia of FCc1cccc(Oc2ncc(F)cn2)c1-n1cc(I)cn1 [Compound 152] tested on kochia.
20

Enter measured Plant response rating, Kochia, system kochia, for the compound shown: O=Cc1cn(-c2ccccc2Oc2ncc(Cl)cn2)nn1 [Compound 272]
0

* * *

- Test system: velvetleaf
- test: Test C postemergence
- Assay type: in vivo, Abutilon theophrasti
- reported-conditions: Postemergence, 62 g ai/ha; scale 0 to 100 (0 no effect, 100 complete control)
Kindly return Met if reported Plant response rating, Velvetleaf is no lower than 60; return Not met if it is lower.

Is Plant response rating, Velvetleaf for Fc1cnc(Oc2ccccc2-n2cc(C(F)(F)F)cn2)nc1 [Compound 47] at or above 60?
Not met

Please indicate if the recorded Plant response rating, Velvetleaf for FCc1cn(-c2ccccc2Oc2ncc(Cl)cn2)nn1 [Compound 123] meets or exceeds 60.
Met

Assess whether reported Plant response rating, Velvetleaf for Clc1cnc(Oc2cccc(Cl)c2-n2cc(I)cn2)nc1 [Compound 181] sits at 60 or higher.
Not met

Can Fc1cccc(Oc2ncc(Cl)cn2)c1-n1cc(Cl)cn1 [Compound 177] be said to have Plant response rating, Velvetleaf at or above 60?
Met
